This collection of values is drawn from patent US20240417463A1.

Measured Kd, listed per entry.
Target: T1, hCD47-ECD/Fc protein (Sinobiological) (human, UniProt Q08722 19-139, biotinylated in the Octet assay, sites not stated)
T1 construct: extracellular domain; Bought protein; also called human CD47-Fc antigen; recombinant hCD47-ECD/Fc; not shown: Fc part of the bought fusion protein
T1 sequence (Q08722 19-139 limits assumed): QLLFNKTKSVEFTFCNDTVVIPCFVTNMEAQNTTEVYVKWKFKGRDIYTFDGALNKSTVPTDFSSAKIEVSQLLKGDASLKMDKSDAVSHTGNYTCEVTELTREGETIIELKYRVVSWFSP
Experiment: BLI (Octet RED96), biotin-hCD47-ECD/Fc on SA sensors, 1:1 model;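 note: test antibodies as analytes, 300 s association then 300 s dissociation in running buffer, with benchmark reference antibodies run as controls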
Give the quantity in nM, number only.

| binder | unit | Kd |
| --- | --- | --- |
| TY25034 (antibody, V domains shown) VH: EVQLVESGGGLVQPGGSLRLSCAASGYSITSGHYWNWIRQAPGKGLEWIGIISPSGGGTKYAQKFQGRVTISRDNSKNTLYLQLNSLRAEDTAVYYCARGARGYYALDYWGQGTLVTVSS VL: EIVLTQSPATLSLSPGERATLSCRASQSVRGRLLAWYQQKPGQAPRLLIYAASSLQSGVPARFSGSGSGTDFTLTISSLEPEDFAVYYCAQYLELPYTFGQGTKVEIKR | nM | 0.826 |
| TY25030 (antibody, V domains shown) VH: EVQLVESGGGLVQPGGSLRLSCAASGYSITSGYYWSWIRQAPGKGLEWIGEIYHSGNTYYNPSLKSRVTISRDNSKNTLYLQLNSLRAEDTAVYYCARRVPLGAFDYWGQGTLVTVSS VL: DIQLTQSPSSLSASVGDRVTITCRASQTVISRYLAWYQQKPGKAPKLLIYDASNLETGVPSRFSGSGSGTDFTLTISSLQPEDFATYYCQQYYAWPLTFGQGTKVEIKR | nM | 4.62 |

For the binder TAC2407 (antibody, V domains shown, Benchmark anti-CD47 antibody; also called 13H3; TJC4) VH: EVQLVESGGGLVKPGGSLRLSCAASGLTFERAWMNWVRQAPGKGLEWVGRIKRKTDGETTDYAAPVKGRFSISRDDSKNTLYLQMNSLKTEDTAVYYCAGSNRAFDIWGQGTMVTVSS VL: DIVMTQSPDSLAVSLGERATINCKSSQSVLYAGNNRNYLAWYQQKPGQPPKLLINQASTRASGVPDRFSGSGSGTEFTLIISSLQAEDVAIYYCQQYYTPPLAFGGGTKLEIK , give its reported Kd.
1.4
